# Tgt: Prostaglandin E synthase 2 (Homo sapiens, UniProt Q9H7Z7)
# Sequence (Q9H7Z7 whole entry): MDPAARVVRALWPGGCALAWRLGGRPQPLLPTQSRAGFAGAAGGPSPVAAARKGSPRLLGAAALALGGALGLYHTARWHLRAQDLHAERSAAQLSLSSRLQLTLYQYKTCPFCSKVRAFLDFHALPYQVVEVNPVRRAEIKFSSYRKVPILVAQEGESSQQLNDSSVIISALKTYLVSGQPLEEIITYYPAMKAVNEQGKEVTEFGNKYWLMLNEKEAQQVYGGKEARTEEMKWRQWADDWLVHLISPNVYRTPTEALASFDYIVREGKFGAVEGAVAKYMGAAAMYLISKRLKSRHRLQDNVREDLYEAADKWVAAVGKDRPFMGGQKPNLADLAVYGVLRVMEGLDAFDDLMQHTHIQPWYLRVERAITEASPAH
# Run description: Inhibition of heme-free recombinant mPGES-2 (unknown origin) pre-incubated with compound for 15 mins followed by PGH2 addition measured after 10 min by ELISA
Assay metric: IC50 (µM)
Write the value in µM as a bare number.

# lookup: IC50 of C[C@@H]1CC[C@H]2[C@@H](C)C(=O)O[C@@H]3O[C@@]4(C)CC[C@@H]1[C@]32OO4
10.3

====

# Test system: HCT-116
# Run description: Antiproliferative activity against human HCT-116 cells assessed as inhibition of cell growth by Cell-titer Glo luminescent assay
# Assay type: functional, cell-based
Assay metric: IC50

Worked examples, 5 compounds total:
# Compound, Tgt, Assay metric, Test result
rows = [
    ("C[C@H]1[C@H](OC(=O)CCC(=O)O)O[C@@H]2O[C@@]3(C)CC[C@H]4[C@H](C)CC[C@@H]1[C@@]24OO3 [ARTESUNATE]", "HCT-116", "IC50", "0.46 µM"),
    ("C[C@H]1[C@@H](OC(=O)c2ccccc2)O[C@@H]2O[C@]3(C)CC[C@H]4[C@H](C)CC[C@@H]1[C@@]24OO3", "HCT-116", "IC50", "3.9 µM"),
    ("C[C@@H]1CC[C@H]2[C@@H](C)C(=O)O[C@@H]3O[C@@]4(C)CC[C@@H]1[C@]32OO4 [ARTEMISININ]", "HCT-116", "IC50", "7.2 µM"),
    ("CO[C@H]1O[C@@H]2O[C@@]3(C)CC[C@H]4[C@H](C)CC[C@@H]([C@H]1C)[C@@]24OO3 [ARTEMETHER]", "HCT-116", "IC50", "8.6 µM"),
    ("C[C@@H]1CC[C@H]2[C@@H](C)C(=O)O[C@@H]3O[C@@]4(C)CC[C@@H]1[C@]32O4 [DEOXYARTEMISININ]", "HCT-116", "IC50", "> 50 µM"),
]

Below: the item to evaluate.
# lookup: IC50 of C=CC[C@H]1O[C@@H]2O[C@]3(C)CC[C@H]4[C@H](C)CC[C@@H]([C@H]1C)[C@@]24OO3
8.5 µM
